Cited source for all entries: ChEMBL document CHEMBL1201862

Parameter: GI50. Scope: all listed entries.
Test system: HCT-116
test-method-notes: NCI tumour cell line growth inhibition, 48 h
Calls of active or inactive are those of the source. Rule as the data show it: active = GI50 up to about 1.1 µM and inactive = higher.
measured-attribute: GI50

1) O=C(NNC(=O)c1cc2ccccc2[nH]1)c1cc2ccccc2[nH]1 | > 100 µM (inactive)
2) C/C(=N\Nc1nc2cc(Cl)ccc2s1)c1ccccn1 | 0.301 µM (active)
3) O=C(O)CC1NC(/C(=C/c2ccccc2O)NC(=O)c2ccccc2)OC1=O (stereo not given) | 45.9 µM (inactive)
4) N#C/C(=C\c1cc(OCc2ccccc2)c(OCc2ccccc2)cn1)C(N)=O | 35.5 µM (inactive)
5) COc1cc(C[P+](c2ccccc2)(c2ccccc2)c2ccccc2)cc(OC)c1OC | > 100 µM (inactive)
